target: T1, human PD-1 (soluble PD-1 protein, R&D Systems) (human, UniProt Q15116 25-170, limits assumed); assay: array SPR, mAb captured on anti-human IgG Fc, PD-1 as analyte
T1 construct: the kinetics paragraphs say only 'PD-1' / 'antigen'; also called hPD-1; soluble PD-1 immunogen
T1 sequence (Q15116 25-170 limits assumed): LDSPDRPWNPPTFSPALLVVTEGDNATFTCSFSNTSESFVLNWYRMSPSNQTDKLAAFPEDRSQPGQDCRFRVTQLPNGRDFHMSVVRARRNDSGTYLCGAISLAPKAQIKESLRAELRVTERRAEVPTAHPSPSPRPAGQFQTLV
Readout: pKd
Note on pKd: it is the negative log10 of concentration, concentration in mol/L.

Looking up A6 (antibody, V domains shown, Tested as full-length mAb expressed in CHO cells; also called antibody A6; L6H6) VH: QVQLVESGGGVVQPGRSLRLSCAASGFTFSSYGMHWVRQAPGKGLEWVAVIWYDGSNKYYADSVKGRFTISRDNSKNTLYLQMNSLRAEDTAVYYCAGGGNYWGDFWGQGTLVTVSS VL: DIQMTQSPSSLSASVGDRVTITCRASQGIRNDLGWYQQKPGKAPKRLLYAASNLQLGVPSRFSGSGSETEFTLTISSLQPEDFATYYCLQHNSYPWTFGQGTKVEIKR , I see its pKd listed as 7.15

Looking up A1 (antibody, V domains shown, Tested as full-length mAb expressed in CHO cells; also called antibody A1; L1H1) VH: QVQLVESGGGVVQPGRSLRLSCAASGFTFSNYGMHWVRQAPGKGLEWVAVIWYDGSNKYYTDSVKGRFTISRDNSKNTLYLQMNSLRAEDTAVYYCAGGGNYYGDYWGQGTLVTVSS VL: DIQMTQSPSSLSASVGDRVTITCRASQGIRNDLGWYQQKPGKAPKRLIYVASSLQSGVPSRFSGSGSGTEFTLTISSLQPEDFATYYCLQHNSYPLTFGGGTKVEIKR , I see its pKd listed as 8.43

Looking up A5 (antibody, V domains shown, Tested as full-length mAb expressed in CHO cells; also called antibody A5; L5H5) VH: QVQLVESGGGVVQPGRSLRLSCAASGFTFSNYGTHWVRQAPGKGLEWVAVIWYDGSNKYYADSVKGRFTISRDNSKNTLYLQMNSLRAEDTAVYYCARDRIYCSSTRCIGFGYYYYGMDVWGQGTTVTVSS VL: AIQLTQSPSSLSASVGDRVTITCRASQGISSALAWYQQKPGKAPKLLIYDASSLESGVPSRFSGSGSGTDFTLTISSLQPEDFATYYCQQFNNYPWTFGQGTKVEIKR , I see its pKd listed as 7.46

Where these numbers come from: patent US20220064302A1
